Cited source for all entries: patent US6127420A

Provide the reported Ki of each item.
# measured on: eNOS (Bos taurus, UniProt P29473)
Response body: numeric value in µM, unit text excluded.

Notebook: CCC(=N)NCCC[C@H](N)C(=O)O , Ki read as 10

Notebook: CC(=N)NCCC[C@H](N)C(=O)O , Ki read as 3.9

Notebook: CCCC(=N)NCCC[C@H](N)C(=O)O [ethyl-L-NIO, reference compound] , Ki read as 18

Notebook: C=CCC(=N)NCCC[C@H](N)C(=O)O , Ki read as 12

---

# measured on: iNOS (Mus musculus)
# method: biochemical
Provide the reported Ki of each item.
Response body: numeric value in µM, unit text excluded.

Notebook: CCCC(=N)NCCC[C@H](N)C(=O)O [ethyl-L-NIO, reference compound] , Ki read as 12

Notebook: CC(=N)NCCC[C@H](N)C(=O)O [L-NIO] , Ki read as 3.9

Notebook: CCC(=N)NCCC[C@H](N)C(=O)O [methyl-L-NIO] , Ki read as 9.5

---

# measured on: iNOS (Mus musculus, UniProt P29477)
# Sequence (P29477 whole entry): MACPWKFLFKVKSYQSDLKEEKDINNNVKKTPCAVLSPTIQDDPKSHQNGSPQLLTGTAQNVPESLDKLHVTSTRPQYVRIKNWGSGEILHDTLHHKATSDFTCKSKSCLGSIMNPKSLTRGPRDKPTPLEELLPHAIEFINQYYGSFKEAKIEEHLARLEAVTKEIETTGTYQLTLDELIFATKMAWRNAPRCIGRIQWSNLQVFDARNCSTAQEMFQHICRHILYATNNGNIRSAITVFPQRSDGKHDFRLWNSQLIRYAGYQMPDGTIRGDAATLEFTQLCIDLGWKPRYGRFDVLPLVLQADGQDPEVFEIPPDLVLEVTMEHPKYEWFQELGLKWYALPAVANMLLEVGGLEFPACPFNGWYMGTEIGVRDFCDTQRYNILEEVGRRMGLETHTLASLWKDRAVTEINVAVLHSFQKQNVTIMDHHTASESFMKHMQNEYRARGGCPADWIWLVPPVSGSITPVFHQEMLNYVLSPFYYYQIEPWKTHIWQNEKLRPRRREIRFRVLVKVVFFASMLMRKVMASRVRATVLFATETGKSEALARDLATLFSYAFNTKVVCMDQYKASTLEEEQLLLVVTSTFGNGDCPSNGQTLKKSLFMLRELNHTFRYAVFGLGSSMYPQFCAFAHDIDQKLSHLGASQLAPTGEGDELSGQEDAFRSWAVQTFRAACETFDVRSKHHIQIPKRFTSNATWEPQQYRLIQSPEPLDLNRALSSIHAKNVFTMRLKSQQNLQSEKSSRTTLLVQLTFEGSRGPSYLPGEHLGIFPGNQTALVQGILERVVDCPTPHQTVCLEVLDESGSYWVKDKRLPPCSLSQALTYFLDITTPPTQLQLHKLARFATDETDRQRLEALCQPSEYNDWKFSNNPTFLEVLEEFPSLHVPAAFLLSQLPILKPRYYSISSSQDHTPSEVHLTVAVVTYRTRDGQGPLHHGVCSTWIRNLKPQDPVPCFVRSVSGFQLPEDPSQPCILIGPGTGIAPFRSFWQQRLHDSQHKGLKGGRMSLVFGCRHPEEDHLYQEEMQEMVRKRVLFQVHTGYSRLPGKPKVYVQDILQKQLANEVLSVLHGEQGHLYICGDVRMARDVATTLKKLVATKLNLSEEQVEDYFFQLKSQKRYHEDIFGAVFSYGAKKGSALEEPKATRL
# protocol conditions: read-out: iNOS Ki; mouse iNOS, 25° C., pH 7.4, initial rate conditions; duplicates agreed within ±5%
readout name: pKi
// pKi: -log10(molar conc.)

Notebook: C=CCC(=N)NCCC[C@H](N)C(=O)O , pKi read as 4.22
